Value source: paper PMC7038993

Please respond with reported pKd for every item in the list.
- tested target: Murine eukaryotic translation initiation factor 4E (eIF4E, residues 28–217); meIF4E (Mus musculus, UniProt P63073)
- Sequence (P63073 28-217): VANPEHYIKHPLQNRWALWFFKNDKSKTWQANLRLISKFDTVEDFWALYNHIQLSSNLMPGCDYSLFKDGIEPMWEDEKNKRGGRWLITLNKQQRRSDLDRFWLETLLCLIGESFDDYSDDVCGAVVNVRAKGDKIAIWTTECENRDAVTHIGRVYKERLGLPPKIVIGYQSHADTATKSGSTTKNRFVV
- test description: time-synchronized fluorescence quenching titration
# log scale: pKd equals minus log10 of the concentration in mol/L

# query: pKd of entry C[n+]1cn([C@@H]2O[C@H](COP(=O)(O)OP(=O)(O)OP(=O)(O)OC[C@H]3O[C@@H](n4ccc(N)nc4=O)[C@H](O)[C@@H]3OP(=O)(O)OC[C@H]3O[C@@H](n4cnc5c(=O)[nH]c(N)nc54)[C@H](O)[C@@H]3O)[C@@H](O)[C@H]2O)c2nc(N)[nH]c(=O)c21
7.60

# query: pKd of entry C[n+]1cn([C@@H]2O[C@H](COP(=O)(O)OP(=O)(O)OP(=O)(O)OC[C@H]3O[C@@H](n4cnc5c(=O)[nH]c(N)nc54)[C@H](O)[C@@H]3OP(=O)(O)OC[C@H]3O[C@@H](n4cnc5c(=O)[nH]c(N)nc54)[C@H](O)[C@@H]3O)[C@@H](O)[C@H]2O)c2nc(N)[nH]c(=O)c21
7.64

# query: pKd of entry CNc1ncnc2c1ncn2[C@@H]1O[C@H](COP(=O)(O)OP(=O)(O)OP(=O)(O)OC[C@H]2O[C@@H](n3c[n+](C)c4c(=O)[nH]c(N)nc43)[C@H](O)[C@@H]2O)[C@@H](OP(=O)(O)OC[C@H]2O[C@@H](n3cnc4c(=O)[nH]c(N)nc43)[C@H](O)[C@@H]2O)[C@H]1O
7.45

# query: pKd of entry CNc1ncnc2c1ncn2[C@@H]1O[C@H](COP(=O)(O)OP(=O)(O)OP(=O)(O)OC[C@H]2O[C@@H](n3c[n+](C)c4c(=O)[nH]c(N)nc43)[C@H](O)[C@@H]2O)[C@@H](OP(=O)(O)OC[C@H]2O[C@@H](n3cnc4c(=O)[nH]c(N)nc43)[C@H](O)[C@@H]2O)[C@H]1OC
7.48

# query: pKd of entry C[n+]1cn([C@@H]2O[C@H](COP(=O)(O)OP(=O)(O)OP(=O)(O)OC[C@H]3O[C@@H](n4cnc5c(N)ncnc54)[C@H](O)[C@@H]3O)[C@@H](O)[C@H]2O)c2nc(N)[nH]c(=O)c21
6.75

# query: pKd of entry C[n+]1cn([C@@H]2O[C@H](COP(=O)(O)OP(=O)(O)OP(=O)(O)OC[C@H]3O[C@@H](n4cnc5c(N)ncnc54)[C@H](O)[C@@H]3OP(=O)(O)OC[C@H]3O[C@@H](n4cnc5c(=O)[nH]c(N)nc54)[C@H](O)[C@@H]3O)[C@@H](O)[C@H]2O)c2nc(N)[nH]c(=O)c21
7.58
